- procedure details: Characterization of SNALP formulations (size, polydispersity, encapsulation)
- Format: physicochemical
- assay conditions: Table 5; 7:54 SNALP with PLK-1 siRNA
Items are presented alongside their recorded Finished Product Encaps. (%).
Provide the measurement as a number trailed by its unit.

>>> print(df.to_string())
                                   molecule  measured_value
0  CCCCC/C=C\C/C=C\CCCCCCCCOCC(COCC(CN(C)C)OCCCCCCCC/C=C\C/C=C\CCCCC)OCCCCCCCC/C=C\C/C=C\CCCCC (stereo not shown)            100%
1  CCCCC/C=C\C/C=C\CCCCCCCCOCC(CN(C)C)OCCCCCCCC/C=C\C/C=C\CCCCC (stereo not shown) [DLinDMA, reference compound]             98%
2  CC(C)CCCC(C)CCCC(C)CCCC(C)CCOCC(CCN(C)C)OCCC(C)CCCC(C)CCCC(C)CCCC(C)C (stereo not shown)            100%

Could you now look at the following molecule, please?
Quick one: Finished Product Encaps. (%) for CC(C)CCCC(C)CCCC(C)CCCC(C)CCOCC(CN(C)C)OCCC(C)CCCC(C)CCCC(C)CCCC(C)C (stereo not shown) ?
100%

* * *

- procedure details: Characterization of SNALP formulations (size, polydispersity, encapsulation)
- Assay type: physicochemical
- assay conditions: Table 5; 7:54 SNALP (PEG750-C-DMA 6.76 | cationic 54.06 | Chol 32.43 | DPPC 6.75 mol %) with PLK-1 siRNA
measured quantity: Initial Encaps. (%)
Report as a plain number; the unit % is understood.

Worked examples, 7 molecules total:
>>> df
                                   molecule  measured_value
0  CC(C)CCCC(C)CCCC(C)CCCC(C)CCC1(CCC(C)CCCC(C)CCCC(C)CCCC(C)C)OCC(CCCN(C)C)O1 (centres unmarked)              86
1  CC(C)CCCC(C)CCCC(C)CCCC(C)CCOCC(CCN(C)C)OCCC(C)CCCC(C)CCCC(C)CCCC(C)C (centres unmarked)              86
2  CC(C)CCCC(C)CCCC(C)CCCC(C)CCC1(CCC(C)CCCC(C)CCCC(C)CCCC(C)C)OCC(CN(C)C)CO1 (centres unmarked)              71
3  CC(C)CCCC(C)CCCC(C)CCCC(C)CCC1(CCC(C)CCCC(C)CCCC(C)CCCC(C)C)OCC(CCN(C)C)O1 (centres unmarked)              84
4  CC(C)CCCC(C)CCCC(C)CCCC(C)CCOCC(CN(C)C)OCCC(C)CCCC(C)CCCC(C)CCCC(C)C (centres unmarked)              75
5  CCCCC/C=C\C/C=C\CCCCCCCCOCC(CN(C)C)OCCCCCCCC/C=C\C/C=C\CCCCC (centres unmarked) [DLinDMA, reference compound]              75
6  CCCCC/C=C\C/C=C\CCCCCCCCC1(CCCCCCCC/C=C\C/C=C\CCCCC)OCC(CN(C)C)O1 (centres unmarked) [DLin-C1K-DMA, reference compound]              56

Tell me the measured Initial Encaps. (%) of CCCCC/C=C\C/C=C\CCCCCCCCOCC(COCC(CN(C)C)OCCCCCCCC/C=C\C/C=C\CCCCC)OCCCCCCCC/C=C\C/C=C\CCCCC (centres unmarked) , please.
70

* * *

Some compounds, each annotated with its measured Finished Product Z-Avg (nm).
- procedure details: Characterization of SNALP formulations (size, polydispersity, encapsulation)
- Assay type: physicochemical
- assay conditions: Table 5; 7:54 SNALP with PLK-1 siRNA
Lab book: enter the figure in nm, no units written.

Reference set (2 entries):
                                   compound  unit_text  measured_value
0  CC(C)CCCC(C)CCCC(C)CCCC(C)CCC1(CCC(C)CCCC(C)CCCC(C)CCCC(C)C)OCC(CCN(C)C)O1 (centres unmarked)         nm              76
1  CC(C)CCCC(C)CCCC(C)CCCC(C)CCOCC(CN(C)C)OCCC(C)CCCC(C)CCCC(C)CCCC(C)C (centres unmarked)         nm              76

Query: Finished Product Z-Avg (nm); subject: CC(C)CCCC(C)CCCC(C)CCCC(C)CCC1(CCC(C)CCCC(C)CCCC(C)CCCC(C)C)OCC(CN(C)C)CO1 (centres unmarked)
80

Moving on to CC(C)CCCC(C)CCCC(C)CCCC(C)CCC1(CCC(C)CCCC(C)CCCC(C)CCCC(C)C)OCC(CCCN(C)C)O1 (centres unmarked)
81

And what about the compound CCCCC/C=C\C/C=C\CCCCCCCCOCC(COCC(CN(C)C)OCCCCCCCC/C=C\C/C=C\CCCCC)OCCCCCCCC/C=C\C/C=C\CCCCC (centres unmarked) ?
126

* * *

- procedure details: Characterization of SNALP formulations (size, polydispersity, encapsulation)
- Type: physicochemical
- assay conditions: Table 5; 7:54 SNALP with PLK-1 siRNA
measured quantity: Finished Product Z-Avg (nm)
Output spec: scalar in nm, unitless text.

Example compounds with recorded Finished Product Z-Avg (nm):
>>> df
                                   compound  measured_value
0  CCCCC/C=C\C/C=C\CCCCCCCCOCC(CN(C)C)OCCCCCCCC/C=C\C/C=C\CCCCC (stereo not drawn) [DLinDMA, reference compound]              74
1  CCCCC/C=C\C/C=C\CCCCCCCCC1(CCCCCCCC/C=C\C/C=C\CCCCC)OCC(CN(C)C)O1 (stereo not drawn) [DLin-C1K-DMA, reference compound]              84

Here is the next item to consider.
Need Finished Product Z-Avg (nm) of CC(C)CCCC(C)CCCC(C)CCCC(C)CCOCC(CCN(C)C)OCCC(C)CCCC(C)CCCC(C)CCCC(C)C (stereo not drawn) , thanks.
81

* * *

- procedure details: Characterization of SNALP formulations (size, polydispersity, encapsulation)
- Format: physicochemical
- assay conditions: Table 5; 7:54 SNALP with PLK-1 siRNA
measured quantity: Finished Product Poly
The reply should be a number, written without any unit.

Some entries whose results are on file:
>>> print(df.to_string())
                                   compound  measured_value
0  CCCCC/C=C\C/C=C\CCCCCCCCOCC(COCC(CN(C)C)OCCCCCCCC/C=C\C/C=C\CCCCC)OCCCCCCCC/C=C\C/C=C\CCCCC (centres unmarked) [TLinDMA]            0.07
1  CC(C)CCCC(C)CCCC(C)CCCC(C)CCC1(CCC(C)CCCC(C)CCCC(C)CCCC(C)C)OCC(CCN(C)C)O1 (centres unmarked) [DPan-C2K-DMA]            0.08
2  CC(C)CCCC(C)CCCC(C)CCCC(C)CCOCC(CCN(C)C)OCCC(C)CCCC(C)CCCC(C)CCCC(C)C (centres unmarked) [Compound C2-DPanDMA]            0.06
3  CC(C)CCCC(C)CCCC(C)CCCC(C)CCOCC(CN(C)C)OCCC(C)CCCC(C)CCCC(C)CCCC(C)C (centres unmarked) [DPanDMA]            0.08
4  CCCCC/C=C\C/C=C\CCCCCCCCC1(CCCCCCCC/C=C\C/C=C\CCCCC)OCC(CN(C)C)O1 (centres unmarked) [DLin-C1K-DMA, reference compound]            0.05
5  CC(C)CCCC(C)CCCC(C)CCCC(C)CCC1(CCC(C)CCCC(C)CCCC(C)CCCC(C)C)OCC(CCCN(C)C)O1 (centres unmarked) [DPan-C3K-DMA]            0.06

Quick one: Finished Product Poly for CCCCC/C=C\C/C=C\CCCCCCCCOCC(CN(C)C)OCCCCCCCC/C=C\C/C=C\CCCCC (centres unmarked) [DLinDMA, reference compound] ?
0.08

# iterate: CC(C)CCCC(C)CCCC(C)CCCC(C)CCC1(CCC(C)CCCC(C)CCCC(C)CCCC(C)C)OCC(CN(C)C)CO1 (centres unmarked) [DPan-C1K6-DMA]
0.06

* * *

- procedure details: Characterization of SNALP formulations (size, polydispersity, encapsulation)
- Type: physicochemical
- assay conditions: Table 5; 7:54 SNALP with PLK-1 siRNA
measured quantity: Finished Product Encaps. (%)
Express the result in % but write the number alone.

>>> df
                                   compound  measured_value
0  CC(C)CCCC(C)CCCC(C)CCCC(C)CCC1(CCC(C)CCCC(C)CCCC(C)CCCC(C)C)OCC(CCCN(C)C)O1 (stereo not shown) [DPan-C3K-DMA]             100

Give its Finished Product Encaps. (%) value. Item: CCCCC/C=C\C/C=C\CCCCCCCCC1(CCCCCCCC/C=C\C/C=C\CCCCC)OCC(CN(C)C)O1 (stereo not shown) [DLin-C1K-DMA, reference compound]
98

Moving on to the next compound: CC(C)CCCC(C)CCCC(C)CCCC(C)CCC1(CCC(C)CCCC(C)CCCC(C)CCCC(C)C)OCC(CCN(C)C)O1 (stereo not shown) [DPan-C2K-DMA]
100

Same question, CC(C)CCCC(C)CCCC(C)CCCC(C)CCC1(CCC(C)CCCC(C)CCCC(C)CCCC(C)C)OCC(CN(C)C)CO1 (stereo not shown) [DPan-C1K6-DMA] this time
99
